experimental_system: murine Aurora Kinase 1 (mAur1) (Mus musculus, UniProt O70126)
Construct: recombinant, GST-tagged mAur 1 (amino acids 67-345) that was co-expressed with human INCENP; GST
Sequence (O70126 67-345): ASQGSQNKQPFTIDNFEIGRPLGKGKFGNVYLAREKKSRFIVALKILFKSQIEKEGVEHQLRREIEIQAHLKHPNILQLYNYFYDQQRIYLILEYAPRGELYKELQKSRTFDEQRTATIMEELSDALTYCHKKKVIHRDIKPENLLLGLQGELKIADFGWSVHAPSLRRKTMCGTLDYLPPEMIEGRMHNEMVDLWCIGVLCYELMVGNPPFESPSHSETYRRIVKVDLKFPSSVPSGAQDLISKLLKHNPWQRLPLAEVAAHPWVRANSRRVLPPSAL
Sequence (Q9NQS7 704-918 partner): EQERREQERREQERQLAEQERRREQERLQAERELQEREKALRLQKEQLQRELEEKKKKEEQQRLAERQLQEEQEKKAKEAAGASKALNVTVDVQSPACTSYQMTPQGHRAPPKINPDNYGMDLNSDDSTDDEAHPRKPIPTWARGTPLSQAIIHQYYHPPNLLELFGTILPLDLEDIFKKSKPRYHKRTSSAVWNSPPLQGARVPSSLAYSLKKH
assay_info: murine Aurora Kinase 1 (mAur1) biochemical Scintillation Proximity Assay
measurement_parameters: SPA, biotinylated Peptide 830, 1 μM ATP, 12 nM GST-tagged mAur 1 co-expressed with human INCENP
reported_endpoint: IC50

{"chem_smiles": "Nc1ncnn2cc(C(=O)O)c(-c3ccc(Nc4nc5ccc(Oc6ccccc6)c(F)c5[nH]4)cc3)c12", "reported_endpoint": "IC50", "obs_value": "< 100 nM"}
{"chem_smiles": "Cc1ccc(Oc2ccc3nc(Nc4ccc(-c5c(C(=O)NCC(F)(F)F)cn6ncnc(N)c56)cc4)[nH]c3n2)cc1C", "reported_endpoint": "IC50", "obs_value": "< 100 nM"}
{"chem_smiles": "CCN(C(=O)c1cn2ncnc(N)c2c1-c1ccc(Nc2nc3cc(F)cc(F)c3[nH]2)cc1)C(C)C", "reported_endpoint": "IC50", "obs_value": "< 100 nM"}
{"chem_smiles": "Nc1ncnn2cc(C(=O)N3CCCC3)c(-c3ccc(Nc4nc5cc(F)cc(F)c5[nH]4)cc3)c12", "reported_endpoint": "IC50", "obs_value": "< 100 nM"}
{"chem_smiles": "Nc1ncnn2cc(C(=O)NCC(F)(F)F)c(-c3ccc(Nc4nc5cc6c(cc5[nH]4)OC(F)(F)O6)c(F)c3)c12", "reported_endpoint": "IC50", "obs_value": "< 100 nM"}
{"chem_smiles": "COCc1cccc(-c2ccc3nc(Nc4ccc(-c5c(C(=O)NCC(F)(F)F)cn6ncnc(N)c56)cc4)[nH]c3n2)c1", "reported_endpoint": "IC50", "obs_value": "< 100 nM"}
{"chem_smiles": "CC(C)N(C)C(=O)c1cn2ncnc(N)c2c1-c1ccc(Nc2nc3cc(F)cc(F)c3[nH]2)cc1", "reported_endpoint": "IC50", "obs_value": "< 100 nM"}
{"chem_smiles": "CCN(C)C(=O)c1cn2ncnc(N)c2c1-c1ccc(Nc2nc3ccc(Oc4ccccc4)c(F)c3[nH]2)cc1", "reported_endpoint": "IC50", "obs_value": "< 100 nM"}
{"chem_smiles": "CCN(C)C(=O)c1cn2ncnc(N)c2c1-c1ccc(Nc2nc3cc(F)cc(F)c3[nH]2)cc1", "reported_endpoint": "IC50", "obs_value": "< 100 nM"}
{"chem_smiles": "Nc1ncnn2cc(C(=O)NC3CCCC3)c(-c3ccc(Nc4nc5cc(F)cc(F)c5[nH]4)cc3)c12", "reported_endpoint": "IC50", "obs_value": "< 100 nM"}
{"chem_smiles": "Nc1ncnn2cc(C(=O)NCC(F)(F)F)c(-c3ccc(Nc4nc5ccc(Oc6cccc(F)c6)c(F)c5[nH]4)cc3)c12", "reported_endpoint": "IC50", "obs_value": "< 100 nM"}
{"chem_smiles": "Nc1ncnn2cc(C(=O)NCC(F)(F)F)c(-c3ccc(Nc4nc5ccc(Sc6cccc(F)c6)nc5[nH]4)cc3)c12", "reported_endpoint": "IC50", "obs_value": "< 100 nM"}
{"chem_smiles": "CC(C)(C)NC(=O)c1cn2ncnc(N)c2c1-c1ccc(Nc2nc3cc(F)cc(F)c3[nH]2)cc1", "reported_endpoint": "IC50", "obs_value": "< 100 nM"}
{"chem_smiles": "Nc1ncnn2cc(C(=O)N3CCOCC3)c(-c3ccc(Nc4nc5cc(F)cc(F)c5[nH]4)cc3)c12", "reported_endpoint": "IC50", "obs_value": "< 100 nM"}
{"chem_smiles": "NC(=O)C1CCN(C(=O)c2cn3ncnc(N)c3c2-c2ccc(Nc3nc4cc(F)cc(F)c4[nH]3)cc2)CC1", "reported_endpoint": "IC50", "obs_value": "< 100 nM"}

====

experimental_system: murine Aurora Kinase 1 (mAur1) (Mus musculus, UniProt O70126)
Construct: recombinant, GST-tagged mAur 1 (amino acids 67-345) that was co-expressed with human INCENP; GST
assay_info: murine Aurora Kinase 1 (mAur1) biochemical Scintillation Proximity Assay
measurement_parameters: SPA, biotinylated Peptide 830, 1 μM ATP, 12 nM GST-tagged mAur 1 co-expressed with human INCENP
Description: Using a Scintillation Proximity Assay (SPA) format, the murine Aurora Kinase 1 (mAur1) and murine Aurora Kinase 2 (mAur2) biochemical assay measures the ability of mAur2 to phosphorylate the substrate, biotinylated Peptide 830 (DRT, Protein Sciences). Once radiolabeled by the enzyme, the biotinylated substrate is captured on streptavidin-coated SPA beads and the radioactivity, in proximity to the SPA beads, is measured. […]
reported_endpoint: IC50

{"molecule": "Nc1ncnn2cc(C(=O)O)c(-c3ccc(Nc4nc5ccc(C(F)(F)F)nc5[nH]4)cc3)c12 [Example 119]", "experimental_system": "murine Aurora Kinase 1 (mAur1) (Mus musculus, UniProt O70126)", "obs_value": "< 0.1 µM"}
{"molecule": "CNC(=O)c1cn2ncnc(N)c2c1-c1ccc(Nc2nc3ccc(Oc4ccccc4)c(F)c3[nH]2)cc1 [Example 102]", "experimental_system": "murine Aurora Kinase 1 (mAur1) (Mus musculus, UniProt O70126)", "obs_value": "< 0.1 µM"}
{"molecule": "Cc1ncnc2[nH]c(Nc3ccc(-c4c(C(=O)NCC(F)(F)F)cn5ncnc(N)c45)cc3)nc12 [Example 45]", "experimental_system": "murine Aurora Kinase 1 (mAur1) (Mus musculus, UniProt O70126)", "obs_value": "< 0.1 µM"}
{"molecule": "CCCNc1ccc2nc(Nc3ccc(-c4c(C(=O)NCC(F)(F)F)cn5ncnc(N)c45)cc3)[nH]c2n1 [Example 55]", "experimental_system": "murine Aurora Kinase 1 (mAur1) (Mus musculus, UniProt O70126)", "obs_value": "< 0.1 µM"}
{"molecule": "Nc1ncnn2cc(C(=O)N3CCCC3)c(-c3ccc(Nc4nc5ccc(Oc6ccccc6)c(F)c5[nH]4)cc3)c12 [Example 113]", "experimental_system": "murine Aurora Kinase 1 (mAur1) (Mus musculus, UniProt O70126)", "obs_value": "< 0.1 µM"}
{"molecule": "CCNC(=O)c1cn2ncnc(N)c2c1-c1ccc(Nc2nc3cc(F)cc(F)c3[nH]2)cc1 [Example 73]", "experimental_system": "murine Aurora Kinase 1 (mAur1) (Mus musculus, UniProt O70126)", "obs_value": "< 0.1 µM"}
{"molecule": "Nc1ncnn2cc(C(=O)NCC(F)(F)F)c(-c3ccc(Nc4nc5ccc(NC6CCC6)nc5[nH]4)cc3)c12 [Example 47]", "experimental_system": "murine Aurora Kinase 1 (mAur1) (Mus musculus, UniProt O70126)", "obs_value": "< 0.1 µM"}

====

experimental_system: murine Aurora Kinase 2 (mAur2) (Mus musculus)
Construct: N-terminal His-tagged mAur2 (amino acids 98-395; DRT, Protein Sciences); His (N); made in house
Sequence (P97477 98-395): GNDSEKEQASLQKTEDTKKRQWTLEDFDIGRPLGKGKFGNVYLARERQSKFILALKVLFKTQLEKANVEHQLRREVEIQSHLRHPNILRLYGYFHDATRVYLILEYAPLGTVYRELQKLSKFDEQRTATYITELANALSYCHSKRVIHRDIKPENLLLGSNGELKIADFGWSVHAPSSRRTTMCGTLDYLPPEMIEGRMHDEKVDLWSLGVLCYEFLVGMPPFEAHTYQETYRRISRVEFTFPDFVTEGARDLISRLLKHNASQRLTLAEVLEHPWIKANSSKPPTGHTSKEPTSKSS
assay_info: murine Aurora Kinase 2 (mAur2) biochemical Scintillation Proximity Assay
measurement_parameters: SPA, biotinylated Peptide 830, 1 μM ATP, 20 nM His-tagged mAur2
Protocol: Using a Scintillation Proximity Assay (SPA) format, the murine Aurora Kinase 1 (mAur1) and murine Aurora Kinase 2 (mAur2) biochemical assay measures the ability of mAur2 to phosphorylate the substrate, biotinylated Peptide 830 (DRT, Protein Sciences). Once radiolabeled by the enzyme, the biotinylated substrate is captured on streptavidin-coated SPA beads and the radioactivity, in proximity to the SPA beads, is measured. […]
Form field: IC50 (one value per entry).

{"chem_smiles": "COc1ccc2nc(Nc3ccc(-c4c(C(=O)NCC(F)(F)F)cn5ncnc(N)c45)cc3)[nH]c2c1", "IC50": "< 100 nM"}
{"chem_smiles": "Nc1ncnn2cc(C(=O)N3CCCCC3)c(-c3ccc(Nc4nc5ccc(Oc6ccccc6)c(F)c5[nH]4)cc3)c12", "IC50": "< 100 nM"}
{"chem_smiles": "Nc1ncnn2cc(C(=O)NCC(F)(F)F)c(-c3ccc(Nc4nc5cc(F)cc(F)c5[nH]4)cc3)c12", "IC50": "< 100 nM"}
{"chem_smiles": "CCN(C(=O)c1cn2ncnc(N)c2c1-c1ccc(Nc2nc3cc(F)cc(F)c3[nH]2)cc1)C(C)C", "IC50": "< 100 nM"}

====

We begin with a simple list: items and their reported pIC50.
experimental_system: murine Aurora Kinase 1 (mAur1) (Mus musculus)
Construct: recombinant, GST-tagged mAur 1 (amino acids 67-345) that was co-expressed with human INCENP; GST
assay_info: murine Aurora Kinase 1 (mAur1) biochemical Scintillation Proximity Assay
measurement_parameters: SPA, biotinylated Peptide 830, 1 μM ATP, 12 nM GST-tagged mAur 1 co-expressed with human INCENP
pIC50: −log10 of the molar value.
reported_endpoint: pIC50

{"compound": "Nc1ncnn2cc(C(=O)NCC(F)(F)F)c(-c3ccc(Nc4nc5ccccc5[nH]4)cc3)c12", "obs_value": "> 7.00"}
{"compound": "Nc1ncnn2cc(C(=O)NCC(F)(F)F)c(-c3ccc(Nc4nc5cc(F)c(F)cc5[nH]4)cc3)c12", "obs_value": "> 7.00"}
{"compound": "Nc1ncnn2cc(C(=O)NC3CCCC3)c(-c3ccc(Nc4nc5ccc(Oc6ccccc6)c(F)c5[nH]4)cc3)c12", "obs_value": "> 7.00"}
{"compound": "COCCNC(=O)c1cn2ncnc(N)c2c1-c1ccc(Nc2nc3ccc(Oc4ccccc4)c(F)c3[nH]2)cc1", "obs_value": "> 7.00"}
{"compound": "Nc1ncnn2cc(C(=O)NCC3CC3)c(-c3ccc(Nc4nc5cc(F)cc(F)c5[nH]4)cc3)c12", "obs_value": "> 7.00"}
{"compound": "Nc1ncnn2cc(C(=O)NCC(F)(F)F)c(-c3ccc(Nc4nc5cc(I)cnc5[nH]4)cc3)c12", "obs_value": "> 7.00"}
{"compound": "CCCN(C)C(=O)c1cn2ncnc(N)c2c1-c1ccc(Nc2nc3cc(F)cc(F)c3[nH]2)cc1", "obs_value": "> 7.00"}
{"compound": "CN(C)C(=O)c1cn2ncnc(N)c2c1-c1ccc(Nc2nc3cc(F)cc(F)c3[nH]2)cc1", "obs_value": "> 7.00"}
{"compound": "Cc1cccc(Oc2ccc3nc(Nc4ccc(-c5c(C(=O)NCC(F)(F)F)cn6ncnc(N)c56)cc4)[nH]c3c2F)c1", "obs_value": "> 7.00"}
{"compound": "COCC1CCCN1C(=O)c1cn2ncnc(N)c2c1-c1ccc(Nc2nc3cc(F)cc(F)c3[nH]2)cc1 (stereo not drawn)", "obs_value": "> 7.00"}
{"compound": "COc1ccc2nc(Nc3ccc(-c4c(C(=O)NCC(F)(F)F)cn5ncnc(N)c45)cc3)[nH]c2c1", "obs_value": "> 7.00"}
{"compound": "Nc1ncnn2cc(C(=O)NCC(F)(F)F)c(-c3ccc(Nc4nc5ccc([N+](=O)[O-])cc5[nH]4)cc3)c12", "obs_value": "> 7.00"}
{"compound": "Nc1ncnn2cc(C(=O)NCC(F)(F)F)c(-c3ccc(Nc4nc5cc(F)cc(F)c5[nH]4)cc3)c12", "obs_value": "> 7.00"}
{"compound": "Nc1ncnn2cc(C(=O)O)c(-c3ccc(Nc4nc5cc(F)cc(F)c5[nH]4)cc3)c12", "obs_value": "> 7.00"}
{"compound": "Nc1ncnn2cc(C(=O)NC3CC3)c(-c3ccc(Nc4nc5ccc(Oc6ccccc6)c(F)c5[nH]4)cc3)c12", "obs_value": "> 7.00"}
